test system: U2OS; test: normalized growth rate inhibition value (GR) relative to untreated cells (GR value (dimensionless, 1 = untreated growth)); higher = less growth inhibition; conditions: 0.100289 µM; 72 h
Is normalized growth rate inhibition value at least 0.9? Then true (1). If not, false (0).

1. CC(=O)O[C@@]12CO[C@@H]1C[C@H](O)[C@@]1(C)C(=O)[C@H](O)C3=C(C)[C@@H](OC(=O)[C@H](O)[C@@H](NC(=O)OC(C)(C)C)c4ccccc4)C[C@@](O)([C@@H](OC(=O)c4ccccc4)[C@H]21)C3(C)C [Docetaxel] = false (0)
2. CS(=O)(=O)N1CCN(Cc2cc3nc(-c4cccc5[nH]ncc45)nc(N4CCOCC4)c3s2)CC1 [Pictilisib] = false (0)
3. Cc1cc(C(C)Nc2ccccc2)c2nc(N3CCOCC3)cc(=O)n2c1 (configuration not stated) [TGX221] = true (1)

Req: Is the recorded value of normalized growth rate inhibition value equal to or greater than 0.9 for this compound? CCN1CCN(Cc2ccc(Nc3ncc(F)c(-c4cc(F)c5nc(C)n(C(C)C)c5c4)n3)nc2)CC1 [Abemaciclib]
Resp: false (0)

Req: Is the recorded value of normalized growth rate inhibition value equal to or greater than 0.9 for this compound? O=C1NC(=O)[C@@H](c2cn3c4c(cccc24)CCC3)[C@@H]1c1c[nH]c2ccccc12 [Tivantinib]
Resp: false (0)

----------
tested on: U2OS; test: normalized growth rate inhibition value (GR) relative to untreated cells (GR value (dimensionless, 1 = untreated growth)); higher = less growth inhibition; settings: 0.0317369 µM; 72 h
normalized growth rate inhibition value listing for selected compounds.
// return a plain number; no unit text

Some compounds with known normalized growth rate inhibition value results, for comparison:
1) NC(=O)Nc1cc(-c2cccc(F)c2)sc1C(=O)N[C@H]1CCCNC1 = 1.12
2) COc1cccc2c1C(=O)c1c(O)c3c(c(O)c1C2=O)C[C@@](O)(C(=O)CO)C[C@@H]3O[C@H]1C[C@H](N)[C@H](O)[C@H](C)O1 = 0.368
3) CC[C@@]1(O)C(=O)OCc2c1cc1n(c2=O)Cc2cc3c(CN(C)C)c(O)ccc3nc2-1 = 0.105

Shift focus to the following entry.
Lookup result for CN1CCN(CCOc2cc(OC3CCOCC3)c3c(Nc4c(Cl)ccc5c4OCO5)ncnc3c2)CC1 ; measured normalized growth rate inhibition value: 0.977

----------
normalized growth rate inhibition value listing for selected compounds.
system: U2OS; experiment: normalized growth rate inhibition value (GR) relative to untreated cells (GR value (dimensionless, 1 = untreated growth)); higher = less growth inhibition; settings: 0.0316 µM; 72 h
// return a plain number; no unit text

1) Cc1ccc(C(=O)N(CCCN)[C@@H](c2oc3cc(Cl)ccc3c(=O)c2Cc2ccccc2)C(C)C)cc1 = 0.0886
2) O=C(Nc1ccc([N+](=O)[O-])cc1Cl)c1cc(Cl)ccc1O [Nicolsamide] = 1.01
3) C#Cc1cccc(Nc2ncnc3cc(OCCOC)c(OCCOC)cc23)c1 = 0.993
4) CC[C@]1(O)C[C@@H]2CN(CCc3c([nH]c4ccccc34)[C@@](C(=O)OC)(c3cc4c(cc3OC)N(C)[C@H]3[C@@](O)(C(=O)OC)[C@H](OC(C)=O)[C@]5(CC)C=CCN6CC[C@]43[C@@H]65)C2)C1 = 0.0629

Lookup result for CC(C)C[C@@H](C=O)NC(=O)[C@H](CC(C)C)NC(=O)[C@H](CC(C)C)NC(=O)OCc1ccccc1 ; measured normalized growth rate inhibition value: 1.01

Lookup result for Cc1cn(-c2cc(NC(=O)c3ccc(C)c(Nc4nccc(-c5cccnc5)n4)c3)cc(C(F)(F)F)c2)cn1 ; measured normalized growth rate inhibition value: 1.11

Lookup result for CNc1cc(-c2cccc(Cl)c2Cl)nc(N)n1 ; measured normalized growth rate inhibition value: 0.997
